- testTarget: Voltage-gated inwardly rectifying potassium channel KCNH3 (Homo sapiens)
- protocolSummary: Inhibition of BEC1 (unknown origin) expressed in dihydrofolate reductase-deficient CHO cells assessed as decrease in KCl-induced intracellular 86Rb ion release at 3 uM after 20 mins relative to control
- Format: cell-based
endpointName: inhibition (%)
Please state the figure in %; there is no need to write the unit.

Example entries and their recorded answers appear below.
Record Fc1cccc(CNc2nc(Nc3ccccc3)nc(Nc3ccccc3)n2)c1 , field inhibition: 34

Record O=C1NCCCCC1Nc1nc(Nc2ccccc2)nc(Nc2ccccc2)n1 (stereo unspecified) , field inhibition: 23

Record c1ccc(Nc2nc(NCC3CC3)nc(Nc3ccccc3)n2)cc1 , field inhibition: 51

Record CSC1COC[C@H]1Nc1nc(Nc2ccccc2)nc(Nc2ccccc2)n1 (stereo partly specified) , field inhibition: 49

Record Fc1ccccc1CNc1nc(Nc2ccccc2)nc(Nc2ccccc2)n1 , field inhibition: 33

---
Record CSC1CCC[C@H]1Nc1nc(Nc2ccccc2)nc(Nc2ccccc2)n1 (stereo partly specified) , field inhibition: 34

Record NC(=O)CNc1nc(Nc2ccccc2)nc(Nc2ccccc2)n1 , field inhibition: 22

Record CCOC(=O)CNc1nc(Nc2ccccc2)nc(Nc2ccccc2)n1 , field inhibition: 21

Record Cc1ccc([N+](=O)[O-])cc1Nc1nc(Nc2ccccc2)nc(Nc2ccccc2)n1 , field inhibition: 22

Record Clc1ccc(CNc2nc(Nc3ccccc3)nc(Nc3ccccc3)n2)cc1 , field inhibition: 45

Record CC(C)Nc1nc(Nc2ccccc2)nc(Nc2ccc3c(c2)CCC3)n1 , field inhibition: 18

----------
- testTarget: Voltage-gated inwardly rectifying potassium channel KCNH3 (Homo sapiens)
- Sequence (whole entry): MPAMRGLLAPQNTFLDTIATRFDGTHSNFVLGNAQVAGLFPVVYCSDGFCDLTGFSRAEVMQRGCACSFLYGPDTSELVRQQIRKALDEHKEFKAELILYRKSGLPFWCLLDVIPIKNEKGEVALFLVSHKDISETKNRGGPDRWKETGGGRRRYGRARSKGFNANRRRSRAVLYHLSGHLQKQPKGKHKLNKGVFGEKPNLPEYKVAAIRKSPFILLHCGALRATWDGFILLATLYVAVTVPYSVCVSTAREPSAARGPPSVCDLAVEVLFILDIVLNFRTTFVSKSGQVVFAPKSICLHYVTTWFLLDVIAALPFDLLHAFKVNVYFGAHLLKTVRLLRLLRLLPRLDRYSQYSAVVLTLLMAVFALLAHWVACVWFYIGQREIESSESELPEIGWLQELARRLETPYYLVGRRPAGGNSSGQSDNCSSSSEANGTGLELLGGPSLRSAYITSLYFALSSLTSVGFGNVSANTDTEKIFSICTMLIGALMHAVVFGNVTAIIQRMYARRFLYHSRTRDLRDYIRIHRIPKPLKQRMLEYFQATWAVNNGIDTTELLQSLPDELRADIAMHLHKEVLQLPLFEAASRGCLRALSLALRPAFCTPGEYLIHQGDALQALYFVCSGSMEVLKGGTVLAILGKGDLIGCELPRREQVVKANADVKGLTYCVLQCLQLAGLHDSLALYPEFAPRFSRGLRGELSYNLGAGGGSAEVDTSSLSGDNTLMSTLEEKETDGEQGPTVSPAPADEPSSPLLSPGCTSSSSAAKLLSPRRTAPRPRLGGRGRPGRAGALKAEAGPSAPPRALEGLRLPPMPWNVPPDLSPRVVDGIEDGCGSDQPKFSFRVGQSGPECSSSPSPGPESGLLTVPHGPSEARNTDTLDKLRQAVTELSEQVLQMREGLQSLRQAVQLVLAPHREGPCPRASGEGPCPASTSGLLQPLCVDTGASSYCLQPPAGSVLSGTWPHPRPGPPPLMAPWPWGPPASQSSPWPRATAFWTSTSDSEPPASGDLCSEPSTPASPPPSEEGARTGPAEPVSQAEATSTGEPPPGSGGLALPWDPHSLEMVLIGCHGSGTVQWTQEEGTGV
- protocolSummary: Inhibition of BEC1 (unknown origin) expressed in dihydrofolate reductase-deficient CHO cells assessed as decrease in KCl-induced intracellular 86Rb ion release at 3 uM after 20 mins relative to control
- Type: cell-based
Given measured inhibition, output Fulfilled if it is greater than or equal to 20% and Not fulfilled if not.

Task: Check this molecule for inhibition at or above 20%: COc1ccc(CNc2nc(Nc3ccccc3)nc(Nc3ccccc3)n2)cc1
Result: Fulfilled

Task: Check this molecule for inhibition at or above 20%: c1ccc(Nc2nc(NCCc3cccs3)nc(Nc3ccccc3)n2)cc1
Result: Not fulfilled

---
Task: Check this molecule for inhibition at or above 20%: Cc1cnc(CNc2nc(Nc3ccccc3)nc(Nc3ccccc3)n2)cn1
Result: Fulfilled

Task: Check this molecule for inhibition at or above 20%: CC(C)Nc1nc(Nc2ccccc2)nc(Nc2ccc3c(c2)OCCO3)n1
Result: Fulfilled

Task: Check this molecule for inhibition at or above 20%: c1ccc(Nc2nc(Nc3ccccc3)nc(Nc3ccc4c(c3)OCCO4)n2)cc1
Result: Not fulfilled
